- Test system: SEM cells
- PROTOCOL NOTES: cell viability relative to DMSO control; higher = less cytotoxic
- STATED CONDITIONS: HPLM + 10% dialyzed FBS; 48 h; 1.71 µM
Task for the reader: assign each of the following compounds its reported cell viability.
One number for each entry, in %.

Example results:
>  <COMPOUND>
O=C(Nc1ccc(OC(F)(F)F)cc1)c1sccc1NCc1ccnc2ccccc12

>  <cell viability / %>
82.3

$$$$
>  <COMPOUND>
Clc1cccc(-c2nnnn2Cc2cccnc2)c1Cl

>  <cell viability / %>
57.7

$$$$
>  <COMPOUND>
COc1ccc(CCN2CCN(CCCc3ccccc3)CC2)cc1OC

>  <cell viability / %>
126

$$$$
>  <COMPOUND>
O=C1\C=C(/OC2=C1C=CC=C2C3=CC=CC=C3)N4CCOCC4

>  <cell viability / %>
59

$$$$
>  <COMPOUND>
Cc1nc(Nc2ncc(C(=O)Nc3c(C)cccc3Cl)s2)cc(N2CCN(CCO)CC2)n1

>  <cell viability / %>
81.9

$$$$

Return reported cell viability values for all items listed beneath this line.
1. C[C@H](NC(=O)C(=O)Nc1ccccc1C(C)(C)C)C(=O)N[C@@H](CC(=O)O)C(=O)COc1c(F)c(F)cc(F)c1F
2. Cc1cc2c(C(C)C)c(O)c(O)c(C=O)c2c(O)c1-c1c(C)cc2c(C(C)C)c(O)c(O)c(C=O)c2c1O
3. Cl.c1cnc2cc3c(cc2n1)C1CNCC3C1
4. CNC(=O)[C@H](Cc1ccccc1)NC(=O)[C@H](CC(C)C)[C@H](CSc1cccs1)C(=O)NO
5. CN(C)CCN(C)CCc1ccc(Cl)c(Cl)c1
6. CCC1=C[C@@H]2CN(C1)Cc1c([nH]c3ccccc13)[C@@](C(=O)OC)(c1cc3c(cc1OC)N(C)[C@H]1[C@@](O)(C(=O)OC)[C@H](OC(C)=O)[C@]4(CC)C=CCN5CC[C@]31[C@@H]54)C2

**A:**
104
101
122
95.7
119
24.1

---

- System: SEM cells
- PROTOCOL NOTES: cell viability relative to DMSO control; higher = less cytotoxic
- STATED CONDITIONS: RPMI 5 mM glucose + 10% FBS; 48 h; 0.0211 µM
MEASUREMENT LABEL: cell viability

Take a look at these entries with their results.
>  <COMPOUND>
CCC(=O)O[C@@]1([C@@H](C)C[C@H]2[C@@H]3CCC/4=C/C(=O)/C=C\[C@]4(C)[C@@]3(F)[C@@H](O)C[C@]12C)C(=O)CCl

>  <SUBJECT OF TEST>
SEM cells

>  <cell viability>
51.3%

$$$$
>  <COMPOUND>
OC[C@H]1O[C@@H](Oc2ccc(O)cc2)[C@H](O)[C@@H](O)[C@@H]1O

>  <SUBJECT OF TEST>
SEM cells

>  <cell viability>
96.3%

$$$$
>  <COMPOUND>
ClC1=CC=C(CCCOC/2=N/NC(=O)C(=C2NCC3=CN=CC=C3)/Br)C=C1

>  <SUBJECT OF TEST>
SEM cells

>  <cell viability>
113%

$$$$
>  <COMPOUND>
COc1cc2c(N3CCN(C(=O)Nc4ccc(OC(C)C)cc4)CC3)ncnc2cc1OCCCN1CCCCC1

>  <SUBJECT OF TEST>
SEM cells

>  <cell viability>
98.1%

$$$$
>  <COMPOUND>
Nc1ccccc1NC(=O)c1ccc(CNc2nccc(-c3cccnc3)n2)cc1

>  <SUBJECT OF TEST>
SEM cells

>  <cell viability>
97.6%

$$$$
>  <COMPOUND>
CC[C@H]1OC(=O)[C@H](C)[C@@H](O[C@H]2C[C@@](C)(OC)[C@@H](O)[C@H](C)O2)[C@H](C)[C@@H](O[C@@H]2O[C@@H](C)C[C@H](N(C)C)[C@H]2O)[C@](C)(O)C[C@@H](C)C(=O)[C@H](C)[C@@H](O)[C@]1(C)O

>  <SUBJECT OF TEST>
SEM cells

>  <cell viability>
102%

$$$$

Parameter requested: cell viability. Apply to each item below.
1. Cc1ccc(NC(=O)c2ccc(CN3CCN(C)CC3)cc2)cc1Nc1nccc(-c2cccnc2)n1
2. CC(C)(C)/[N+]([O-])=C/c1ccc([S+](=O)([O-])[O][Na])cc1[S+](=O)([O-])[O][Na]
3. CN(C)CCN(C)CCc1ccc(Cl)c(Cl)c1
4. CCCCN(CCCC)CCC(O)c1cc2c(Cl)cc(Cl)cc2c2cc(C(F)(F)F)ccc12 (configuration not stated)
5. O=C(O)c1ccc2cc(-c3ccc(O)c(C45CC6CC(CC(C6)C4)C5)c3)ccc2c1
6. O=[N+]([O-])c1cn2c(n1)OC[C@@H](OCc1ccc(OC(F)(F)F)cc1)C2

**A:**
134%
109%
125%
115%
118%
144%

Sourced from the supplement of paper PMC11451515
